# target_or_system: CDK4/cyclin D3 (Homo sapiens)
# method_summary: Human CDK4/cyclin D3 inhibitory activity (QS S Assist CDK4/Cyclin D3_FP Kit, IMAP fluorescent polarization)
# experimental_setup: read-out: CDK4 Activity symbol
pIC50: −log10 of the molar value.
value_type: pIC50

Input: Recorded pIC50 of "C[C@@H](O)c1cc2cnc(Nc3ccc4c(n3)CCN(CCN(C)C)C4)nc2c(N2CCC(F)CC2)n1" , please.
Output: > 8.00

Input: And the next one, "C[C@@H](O)c1cc2cnc(Nc3ccc4c(n3)CCN(C(=O)[C@H]3CCNC3)C4)nc2c(N2CCCCC2)n1" ?
Output: > 8.00

Input: And the next one, CC(O)c1cc2cnc(Nc3ccc4c(n3)CCN(C(=O)CN3CC5(COC5)C3)C4)nc2c(N2C3CCC2CC3)n1 (stereo not shown) ?
Output: > 8.00

Input: And the next one, "C[C@@H](O)Cc1cc2cnc(Nc3ccc(CN4CCN(CCO)CC4)cn3)nc2c(N2CCCCC2)n1" ?
Output: 7.00 to 8.00

Input: And the next one, "CC(=O)c1cc2cnc(Nc3ccc(N4CCNCC4)cn3)nc2c(N2CCCCC2)n1" ?
Output: 7.00 to 8.00

Input: And the next one, "C[C@@H](O)c1cc2cnc(Nc3ccc4c(n3)CCN(C(=O)CN3CC[C@@H](F)C3)C4)nc2c(N2C3CCC2CC3)n1" ?
Output: > 8.00

Input: And the next one, "O=C1CNCCN1c1ccc(Nc2ncc3cc(CCO)nc(N4CCCCC4)c3n2)nc1" ?
Output: > 8.00

====

# target_or_system: CDK4/cyclin D3 (Homo sapiens, UniProt P11802)
# Sequence (P11802 whole entry): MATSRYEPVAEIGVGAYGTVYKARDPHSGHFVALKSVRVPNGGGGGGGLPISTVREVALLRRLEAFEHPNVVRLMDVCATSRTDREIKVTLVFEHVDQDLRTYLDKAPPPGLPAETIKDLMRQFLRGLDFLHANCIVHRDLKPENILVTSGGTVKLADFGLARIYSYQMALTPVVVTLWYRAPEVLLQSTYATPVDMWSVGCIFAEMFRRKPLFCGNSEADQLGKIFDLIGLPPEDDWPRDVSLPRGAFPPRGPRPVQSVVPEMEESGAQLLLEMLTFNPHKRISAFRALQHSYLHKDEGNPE
# Sequence (P30281 whole entry partner): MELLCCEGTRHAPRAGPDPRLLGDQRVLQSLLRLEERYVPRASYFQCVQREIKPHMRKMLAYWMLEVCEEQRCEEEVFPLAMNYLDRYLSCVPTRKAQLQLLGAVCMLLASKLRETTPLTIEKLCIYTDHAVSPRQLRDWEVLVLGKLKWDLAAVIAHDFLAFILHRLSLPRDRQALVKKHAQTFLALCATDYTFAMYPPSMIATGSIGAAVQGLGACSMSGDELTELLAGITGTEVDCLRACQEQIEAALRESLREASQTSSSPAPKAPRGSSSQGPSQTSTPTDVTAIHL
# method_summary: Human CDK4/cyclin D3 inhibitory activity (QS S Assist CDK4/Cyclin D3_FP Kit, IMAP fluorescent polarization)
# experimental_setup: read-out: CDK4 Activity symbol
pIC50: −log10 of the molar value.
value_type: pIC50

Input: Recorded pIC50 of "C[C@@H](O)c1cc2cnc(Nc3ccc4c(n3)CCN(C(=O)[C@@H]3CCCN3C)C4)nc2c(N2C3CCC2CC3)n1" , please.
Output: > 8.00

Input: And the next one, "C[C@@H](O)c1cc2cnc(Nc3ccc(O[C@H]4CCCN(CCO)C4)cn3)nc2c(N2CCC[C@H](F)C2)n1" ?
Output: > 8.00

Input: And the next one, c1cc(N2CCNCC2)nnc1Nc1ncc2cc(C3CCOC3)nc(N3CCCCC3)c2n1 (stereo not shown) ?
Output: > 8.00

Input: And the next one, "C[C@@H](O)c1cc2cnc(Nc3ccc4c(n3)CCN(C3CNC3)C4)nc2c(N2CCCCC2)n1" ?
Output: > 8.00

====

What pIC50 was measured for each of the following?
# target_or_system: CDK4/cyclin D3 (Homo sapiens, UniProt P11802)
# method_summary: Human CDK4/cyclin D3 inhibitory activity (QS S Assist CDK4/Cyclin D3_FP Kit, IMAP fluorescent polarization)
# experimental_setup: read-out: CDK4 Activity symbol
pIC50: −log10 of the molar value.

Input: Recorded pIC50 of C[C@@H](O)c1cc2cnc(Nc3ccc(C(=O)N4CCCN(C)CC4)cn3)nc2c(N2CCCCC2)n1 [Compound 304] , please.
Output: > 8.00

Input: And the next one, C[C@@H](O)c1cc2cnc(Nc3ccc4c(n3)CCN(C3CN(C)C3)C4)nc2c(N2C3CCC2CC3)n1 [Compound 240] ?
Output: > 8.00

Input: And the next one, CN1CCN(c2ccc(Nc3ncc4cc(CO)nc(-c5ccoc5)c4n3)nc2)CC1 [Compound 21] ?
Output: 7.00 to 8.00

Input: And the next one, COC(C)c1cc2cnc(Nc3ccc(CN4CCNCC4)cn3)nc2c(N2CCC(CO)CC2)n1 (stereo not shown) [Compound 45] ?
Output: > 8.00

Input: And the next one, OCc1cc2cnc(Nc3ccc(N4CCNCC4)cn3)nc2c(N2CCOCC2)n1 [Compound 7] ?
Output: > 8.00

Input: And the next one, CN1CCN(c2ccc(Nc3ncc4cc(CO)nc(-c5ccsc5)c4n3)nc2)CC1 [Compound 20] ?
Output: > 8.00

Input: And the next one, C[C@@H](O)c1cc2cnc(Nc3ccc(CN4CCN(C)CC4)cn3)nc2c(N2CCOC[C@@H]2C)n1 [Compound 290] ?
Output: > 8.00

Input: And the next one, COC(C)c1cc2cnc(Nc3ccc(CN4CCNCC4)cn3)nc2c(N2CCCCC2)n1 (stereo not shown) [Compound 43] ?
Output: > 8.00

Input: And the next one, C[C@@H](O)c1cc2cnc(Nc3ccc(N4CCN(C)CC4=O)cn3)nc2c(N2CCOCC2)n1 [Compound 74] ?
Output: 7.00 to 8.00

Input: And the next one, C[C@@H](O)c1cc2cnc(Nc3ccc4c(n3)CCN(C(=O)Cc3ccccn3)C4)nc2c(N2CCCCC2)n1 [Compound 335] ?
Output: 7.00 to 8.00

Input: And the next one, C[C@@H](O)c1cc2cnc(Nc3ccc(CN4CCN(CCO)CC4)cn3)nc2c(N2CCOCC2)n1 [Compound 58] ?
Output: 7.00 to 8.00

Input: And the next one, C[C@@H](O)c1cc2cnc(Nc3ccc(CN4CCN(CCO)CC4)cn3)nc2c(N2CCS(=O)(=O)CC2)n1 [Compound 85] ?
Output: 7.00 to 8.00

Input: And the next one, C[C@@H](O)c1cc2cnc(Nc3ccc(CN4CCN(CCO)CC4)cn3)nc2c(N2CCC[C@@H]2C)n1 [Compound 98] ?
Output: 7.00 to 8.00

Input: And the next one, CC(O)c1cc2cnc(Nc3ccc(CN4CCN(C)CC4)cn3)nc2c(N2C3CCC2COC3)n1 (stereo not shown) [Compound 292] ?
Output: > 8.00

Input: And the next one, CN1CCN(c2ccc(Nc3ncc4cc(CO)nc(N5CCCCC5)c4n3)nc2)CC1 [Compound 2] ?
Output: > 8.00

Input: And the next one, CC(O)c1cc2cnc(Nc3ccc(CN4CCN(C)CC4)cn3)nc2c(N2CCCC2C)n1 (stereo not shown) [Compound 136] ?
Output: > 8.00

====

# target_or_system: CDK4/cyclin D3 (Homo sapiens, UniProt P11802)
# method_summary: Human CDK4/cyclin D3 inhibitory activity (QS S Assist CDK4/Cyclin D3_FP Kit, IMAP fluorescent polarization)
# experimental_setup: read-out: CDK4 Activity symbol
value_type: IC50

Input: Recorded IC50 of "FC(F)c1cc2cnc(Nc3ccc(N4CCNCC4)cn3)nc2c(N2CCOCC2)n1" , please.
Output: 10 to 100 nM

Input: And the next one, "C[C@@H](O)c1cc2cnc(Nc3ccc4c(n3)CCN(C(=O)CN3CCN(C)CC3)C4)nc2c(N2C3CCC2CC3)n1" ?
Output: < 10 nM

Input: And the next one, "CN(C)CCN1CCc2nc(Nc3ncc4cc(CCO)nc(N5CCCCC5)c4n3)ccc2C1" ?
Output: < 10 nM

Input: And the next one, C[C@@H](O)c1cc2cnc(Nc3ccc(N4CCNCC4)nn3)nc2c(N2CCCCC2C(=O)O)n1 (stereo partly shown) ?
Output: < 10 nM

====

What pIC50 was measured for each of the following?
# target_or_system: CDK4/cyclin D3 (Homo sapiens)
# Construct: purchased Carna Biosciences, Inc. QS S Assist CDK4/Cyclin D3_FP Kit
# method_summary: Human CDK4/cyclin D3 inhibitory activity (QS S Assist CDK4/Cyclin D3_FP Kit, IMAP fluorescent polarization)
# Format: biochemical
# experimental_setup: read-out: CDK4 Activity symbol
pIC50: −log10 of the molar value.

Input: Recorded pIC50 of "C[C@@H](O)c1cc2cnc(Nc3ccc(CN4CCN(CCO)CC4)cn3)nc2c(N2CCOC[C@@H]2C)n1" , please.
Output: 7.00 to 8.00

Input: And the next one, "C[C@@H](O)c1cc2cnc(Nc3ccc(N4CCCNCC4=O)cn3)nc2c(N2CCCCCC2)n1" ?
Output: > 8.00

Input: And the next one, "C[C@@H](O)c1cc2cnc(Nc3ccc(CN4CCN(C)CC4)cn3)nc2c(N2CCC(F)(F)CC2)n1" ?
Output: > 8.00

Input: And the next one, CC(O)c1cc2cnc(Nc3ccc(CN4CCN(CCO)CC4)cn3)nc2c(N2CCCC2C)n1 (stereo not drawn) ?
Output: > 8.00

Input: And the next one, "C[C@@H](O)c1cc2cnc(Nc3ccc4c(n3)CCN(C(=O)[C@@H]3C[C@@H](O)CN3C)C4)nc2c(N2C3CCC2CC3)n1" ?
Output: > 8.00

Input: And the next one, "C[C@@H](O)c1cc2cnc(Nc3ccc4c(n3)CCN(C(=O)CN3CC[C@@H](O)C3)C4)nc2c(N2C3CCC2CC3)n1" ?
Output: > 8.00

Input: And the next one, "C[C@@H](O)c1cc2cnc(Nc3ccc(N4CCNCC4)nn3)nc2c(N2CCCCC2)n1" ?
Output: > 8.00

Input: And the next one, "OCCc1cc2cnc(Nc3ccc(N4CCNCC4)nn3)nc2c(N2CCCCC2)n1" ?
Output: > 8.00

Input: And the next one, CCC(O)c1cc2cnc(Nc3ccc(CN4CCN(C)CC4)cn3)nc2c(N2CCCCC2)n1 (stereo not drawn) ?
Output: > 8.00

Input: And the next one, "C[C@@H](O)c1cc2cnc(Nc3ccc(O[C@H]4CCN(CCO)C[C@@H]4F)cn3)nc2c(N2CCCCC2)n1" ?
Output: 7.00 to 8.00

Input: And the next one, "C[C@@H](O)c1cc2cnc(Nc3ccc(N4CCNCC4)nn3)nc2c(N2CCC(C#N)CC2)n1" ?
Output: > 8.00

Input: And the next one, "C[C@@H](O)c1cc2cnc(Nc3ccc(CN4CCC(C#N)CC4)cn3)nc2c(N2CCCCC2)n1" ?
Output: > 8.00

Input: And the next one, "C[C@H](O)Cc1cc2cnc(Nc3ccc(N4CCNCC4=O)cn3)nc2c(N2CCCCC2)n1" ?
Output: > 8.00

Input: And the next one, "C[C@@H](CO)c1cc2cnc(Nc3ccc(CN4CCN(CCO)CC4)cn3)nc2c(N2CCCCC2)n1" ?
Output: > 8.00

Input: And the next one, "CC[C@@H](O)c1cc2cnc(Nc3ccc(N4CCNCC4=O)cn3)nc2c(N2CCC[C@H]2C)n1" ?
Output: > 8.00
